Target: KcsA-Kv1.1 turret-filter chimera (Streptomyces lividans | human)
Experiment: ELISA
measuredQuantity: IC50

I am curious: what IC50 value has been reported for VSCTGSKDCYAPCRKQTGCPNAKCINKSCKCYGC [Maurotoxin, synthetic peptide] ?
> 1000 nM
